# method: in vitro
# experimental setup: rat, liver microsomes
# Description: Clearance in rat liver microsomes
measured property: microsomal CLint (µL/min/mg)

(A) CC(=O)Nc1nc2ccc(-c3cnc(Cl)c(NS(=O)(=O)c4ccc(C(C)(C)C)cc4)c3)cc2s1
(B) CC(=O)Nc1nc2ccc(-c3cnc(Cl)c(NS(=O)(=O)c4ccccc4F)c3)cc2s1
(C) CC(=O)Nc1nc2ccc(-c3cnc(Cl)c(NS(=O)(=O)c4cccc(C(F)(F)F)c4)c3)cc2s1
Hello, I need these entries ordered by microsomal CLint, highest reading first. Thanks! List the labels, following the order given in the request.
A, B, C
(A: 460 µL/min/mg, B: 320 µL/min/mg, C: 36 µL/min/mg)

* * *

Recorded below: IC50, system Serine/threonine-protein kinase mTOR (Homo sapiens, UniProt P42345).

These solved cases illustrate the format of a correct answer.
CC(=O)Nc1nc2ccc(-c3ccnc(NC(C)(C)c4ccccc4)n3)cc2s1 > 6 µM
COc1cccc(Sc2nccc(-c3ccc4nc(NC(C)=O)sc4c3)n2)c1 > 6 µM
CC(=O)Nc1nc2ccc(-c3cnc(Cl)c(NS(=O)(=O)c4ccc(Cl)cc4)c3)cc2s1 < 0.001 µM
CC(=O)Nc1nc2ccc(-c3ccnc(Sc4cccc(F)c4)n3)cc2s1 > 6 µM
CC(=O)Nc1nc2ccc(-c3ccnc(Sc4ccc(C)cc4)n3)cc2s1 > 6 µM
CC(=O)Nc1nc2ccc(-c3ccnc(OCCCc4ccccc4)n3)cc2s1 > 6 µM
CC(=O)Nc1nc2ccc(-c3ccnc(Sc4ccccc4F)n3)cc2s1 > 6 µM
CC(=O)Nc1nc2ccc(-c3ccnc(Oc4ccccc4)n3)cc2s1 > 6 µM
CC(=O)Nc1nc2ccc(-c3cnc(Cl)c(NS(=O)(=O)c4ccccc4C(F)(F)F)c3)cc2s1 < 0.001 µM
CC(=O)Nc1nc2ccc(-c3cnc(Cl)c(NS(=O)(=O)c4cccc(C(F)(F)F)c4)c3)cc2s1 < 0.001 µM

Okay, now this compound:
Return reported IC50 for target or system Serine/threonine-protein kinase mTOR (Homo sapiens, UniProt P42345), item `CC(=O)Nc1nc2ccc(-c3ccnc(NS(=O)(=O)c4ccc(C)cc4)n3)cc2s1` .
0.065 µM

* * *

Measured microsomal CLint values are reported for all entries that follow.
# method: in vitro
# experimental setup: rat, liver microsomes

Recorded results for 3 compounds are shown here.
CC(=O)Nc1nc2ccc(-c3cnc(Cl)c(NS(=O)(=O)c4ccccc4)c3)cc2s1 > 399 µL/min/mg
COc1ccc(S(=O)(=O)Nc2cc(-c3ccc4nc(NC(C)=O)sc4c3)cnc2Cl)cc1 > 399 µL/min/mg
CC(=O)Nc1nc2ccc(-c3cnc(Cl)c(NS(=O)(=O)c4ccccc4Cl)c3)cc2s1 > 399 µL/min/mg

For the next question, use this compound.
Item `CC(=O)Nc1nc2ccc(-c3cnc(Cl)c(NS(=O)(=O)c4ccc(C(F)(F)F)cc4)c3)cc2s1` : provide microsomal CLint
< 14 µL/min/mg

* * *

# experimental system: Serine/threonine-protein kinase mTOR (Homo sapiens, UniProt P42345)
measured property: IC50 (nM)

(a) CC(=O)Nc1nc2ccc(-c3cnc(Cl)c(NS(=O)(=O)c4ccc(C(F)(F)F)cc4)c3)cc2s1
(b) CC(=O)Nc1nc2ccc(-c3ccnc(NS(=O)(=O)c4ccc(F)cc4)n3)cc2s1
Among a and b , which shows a numerically higher IC50 result? To answer, give the label that identifies your chosen option.
b
